Tested on: Trypanosoma cruzi
procedure-details: Trypanosoma cruzi phosphomannomutase and mannose-1-phosphate guanylyltransferase assay
Assay type: functional
Parameters: scale not given: direction of the effect not stated beside the values
settings: 10 µM
endpoint-label: Percent Effect (%)
Express the result in % but write the number alone.

Query: Lookup: Percent Effect / Trypanosoma cruzi / Cc1cc(CN2CCCC2c2noc(C3CC3)n2)c2ccccc2n1 (configuration not stated)
Result: -1.39

Query: Lookup: Percent Effect / Trypanosoma cruzi / Cc1nnc(N2CCOC(Cn3cccn3)C2)c(C#N)c1C (configuration not stated)
Result: 2.26

Query: Lookup: Percent Effect / Trypanosoma cruzi / O=C(N1CCCCC1)N1CCN(CC(O)c2ccc(F)cc2)CC1 (configuration not stated)
Result: -4.51

Query: Lookup: Percent Effect / Trypanosoma cruzi / COCc1cn([C@@H]2c3ccccc3C3(CCNCC3)[C@H]2O)nn1
Result: 6.71

Query: Lookup: Percent Effect / Trypanosoma cruzi / CC1Cc2ccccc2N1Cc1occc1C(=O)OCC(N)=O (configuration not stated)
Result: 4.56

Query: Lookup: Percent Effect / Trypanosoma cruzi / Clc1ccc2oc(C3CCN(Cc4cccnc4)CC3)nc2c1
Result: 5.02

Query: Lookup: Percent Effect / Trypanosoma cruzi / Cc1nc(CN2C(=O)C[C@H]3[C@H]2CCN3C2CCOCC2)cs1
Result: 0.595

Query: Lookup: Percent Effect / Trypanosoma cruzi / Cn1c(Cn2cccn2)nnc1C1CCN(Cc2cccnc2N)CC1
Result: -3.4

Query: Lookup: Percent Effect / Trypanosoma cruzi / CC1=Nc2c(c(=O)[nH]n2C(C)C)C(c2cccs2)S1 (configuration not stated)
Result: 0.197

Query: Lookup: Percent Effect / Trypanosoma cruzi / NC(=O)C1CCN(C(=O)c2ccn(-c3ccc(F)cc3)n2)C1 (configuration not stated)
Result: -6.96

Query: Lookup: Percent Effect / Trypanosoma cruzi / COCCNc1nc(C2CCCC2)nc2c1CCNCC2
Result: 4.83

Query: Lookup: Percent Effect / Trypanosoma cruzi / CNC(=O)c1nc2c(s1)CCN(C(=O)c1cccnc1)CC2
Result: -3.67

Data credit: ChEMBL document CHEMBL3988442
